Test system: NCI-H226
MEASUREMENT_NOTES: NCI tumour cell line growth inhibition, 48 h
Calls of active or inactive are those of the source. Cut-off read from the data, not from the text of the source: active = GI50 up to about 1.1 µM and inactive = higher.
Possible outcomes: active, inactive

| COMPOUND | CATEGORY_LABEL |
| --- | --- |
| O=Cc1ccc(-c2ccc(-c3ccc(C=O)s3)o2)s1 | active |
| Cc1ccc2nc(NC(=O)C(=O)C(C#N)c3nc4ccccc4s3)sc2c1 (configuration not stated) | inactive |
| N=c1oc2ccc(Cl)cc2cc1C(=O)NC1CCCCC1 | inactive |
| Nc1nc(Cl)cc(NC2(CO)CCC2)n1 | inactive |
| N=c1oc2cc(O)ccc2cc1C(=O)Nc1cccc2ccccc12 | inactive |
| N/N=C1N=C(Cl)/C(=C/c2ccco2)N\1 | inactive |
| NCc1ccc(-c2ccc(CN)s2)s1 | inactive |
| Cc1ccc(S(=O)(=O)N2C[C@@H]3CC[C@]4(CO[Si](C)(C)C(C)(C)C)N[C@@H](c5ccccc5)[C@H]2[C@H]34)cc1 | inactive |
| N#CC1C(=S)NC(c2ccccc2)=CC12CCCCC2 (configuration not stated) | inactive |
| COC(=O)C1=C(C[S+]([O-])c2ccccc2[N+](=O)[O-])ON(C)C1c1ccccc1 (configuration not stated) | inactive |
| CCOC(=O)NC(NC1=NCCS1)(C(=O)OCC)C(F)(F)F (configuration not stated) | inactive |
| C[n+]1c2ccccc2c(NC(CCCNC(=N)N)C(=O)O)c2ccccc21 (configuration not stated) | inactive |
| COC(=O)C1=C(C)N2[C@H](C(=O)O)CS[C@@]2(C)[C@H](C(=O)OC)[C@H]1c1cccc([N+](=O)[O-])c1 | inactive |
| Nc1ncc(C=O)c(NCC2(CO)CCC2)n1 | inactive |
| COC(=O)C1=NN2c3ccccc3C(=O)OCCC2C1 (configuration not stated) | inactive |
| COC(=O)N/N=C(\c1nc2ccc(Cl)cc2nc1O)C(O)c1ccc([N+](=O)[O-])cc1 (configuration not stated) | inactive |
| O=C1CCCCN1C(=O)c1ccc([N+](=O)[O-])cc1 | inactive |
| C[C@H]1[C@H](N2CCCC2)O[Si](C(C)(C)C)(C(C)(C)C)[C@@H]1C | inactive |
| O=C1C2C(C(=O)N1c1ccccc1)C1c3ccccc3C2C2C(=O)N(c3ccccc3)C(=O)C21 (configuration not stated) | inactive |
| CN1N=C(N)c2cn(C3OC(COP(=O)(O)O)C(O)C3O)c3ncnc1c23 (configuration not stated) | inactive |
| COc1cc([C@@H]2c3cc4c(cc3[C@@H](Nc3ccc(C(=O)N[C@H]5CCc6cc(OC)c(OC)c(OC)c6-c6ccc(SC)c(=O)cc65)cc3)[C@H]3COC(=O)[C@H]23)OCO4)cc(OC)c1O | active |
| Cc1ccccc1NC(=O)C(=O)C(C#N)c1ccccc1C (configuration not stated) | inactive |
| N=C(N)SCc1ccc2c(c1)Sc1ccccc1O2 | inactive |
| O=C(OCc1ccccc1)C1(N2CN(C3(C(=O)OCc4ccccc4)CCCC3)CN(C3(C(=O)OCc4ccccc4)CCCC3)C2)CCCC1 | inactive |
| NCCCCNCCCNC(=O)c1nc(-c2csc(CCN)n2)sc1Cl | inactive |
| CCOc1cc2c(cc1O)C=C[C@@H]1[C@@H]2CC[C@]2(C)[C@@H](O)CC[C@@H]12 | inactive |
| C[C@]12CC(c3ccccc3O1)C(C(=O)NC13CC4CC(CC(C4)C1)C3)C(=O)N2 (some centres not stated) | inactive |
| Clc1ccc(Cl)c(SCCCN2CCNCC2)c1 | inactive |
| c1ccc(NNN2NC(c3ccccc3)C2c2ccccc2)cc1 (configuration not stated) | inactive |
| CC1=NOC(=O)/C1=C/c1ccc([N+](=O)[O-])cc1 | inactive |
| CCOC(=O)c1c(SC)nc(-c2ccc(Cl)cc2)sc1=N.[O-][Cl+3]([O-])([O-])O | inactive |
| CC(=O)NNc1nc(C)c(C(/C=C/c2ccc([N+](=O)[O-])cc2)=N/NC(N)=O)s1 | inactive |
| O=C(/C=C/c1ccc(C(F)(F)F)cc1)c1c([O-])on[n+]1-c1ccccc1 | inactive |
| COc1ccc(-c2cc(O)c3cc(Cl)ccc3n2)cc1 | inactive |
| Nc1nc(Cl)c(N)c(NC23CC4CC(CC(C4)C2)C3)n1 | inactive |
| Clc1cc(Cl)ncn1 | inactive |
| O=C(O)c1nc2ccc(Cl)cc2[nH]c1=O | inactive |
| O=C(c1cscc1CCc1ccccc1)c1cscc1CCc1ccccc1 | inactive |
| CC(=O)C1(Cc2cccc3ccccc23)S(=O)(=O)OCCOS1(=O)=O | inactive |
| NC1=NCC(CN2CCCCC2)O1 (configuration not stated) | inactive |
| O=C1NC(=S)NC(=O)C1=Cc1ccc2ccccc2n1 | inactive |
| O=C(CCc1nnc2s/c(=C\c3ccccc3Cl)c(=O)n12)Nc1cc(Cl)ccc1Cl | inactive |

----------
Tested on: COLO 205
MEASUREMENT_NOTES: NCI tumour cell line growth inhibition, 48 h
Active and inactive are the calls of the source. Cut-off read from the data, not from the text of the source: active = GI50 up to about 1.1 µM and inactive = higher.
QUANTITY_MEASURED: GI50

| COMPOUND | MEASURED_ON | TEST_RESULT |
| --- | --- | --- |
| CN(C)CCNc1ccc([N+](=O)[O-])c2sc3ccccc3c(=O)c12 | COLO 205 | 2.86 µM (inactive) |
| CN1c2ccccc2C2=C(c3ccccc3)CC[C@@H](C(=O)N3C4CC5CC[C@@]4(CS3(=O)=O)C5(C)C)[C@@H]21 (stereo not given in full) | COLO 205 | > 100 µM (inactive) |
| COc1ccc2nc3cc(Cl)ccc3c(Nc3ccc(O)c(CN4CCN(C)CC4)c3)c2c1 | COLO 205 | 1.63 µM (inactive) |
| O=C1NC(Nc2ccccc2Cl)=N/C1=C\c1c(Cl)cccc1Cl | COLO 205 | 27.7 µM (inactive) |
| Cc1ccc(-c2c(C#N)c(-c3ccc(Cl)cc3)c(C#N)c(=O)n2NS(=O)(=O)c2ccccc2)cc1 | COLO 205 | > 100 µM (inactive) |

----------
System: TK-10
MEASUREMENT_NOTES: NCI tumour cell line growth inhibition, 48 h
Active and inactive are the calls of the source. Rule as the data show it: active = GI50 up to about 1.1 µM and inactive = higher.
Possible outcomes: active, inactive

| COMPOUND | CATEGORY_LABEL |
| --- | --- |
| CCCSc1cc(Cl)c(C)cc1S(=O)(=O)n1ccnc1OCCCN(C)C | inactive |
| CCCCCCCCCCCC[S+](C)C | inactive |
| CC(CC(=O)CO[C@H]1[C@H](O)[C@@H](O)[C@@H](O)[C@@H]2NC(=O)c3c(cc4c(c3O)OCO4)[C@H]21)OC1OC(CO)C(O)C(O)C1O (some centres not stated) | active |
| CCN(CC)C(=O)CCn1ccc(=O)[nH]c1=O | inactive |
| c1ccc(CN2CCC3(CC2)SSC2(CCN(Cc4ccccc4)CC2)S3)cc1 | inactive |
| O=c1[nH]c(S)nc2c1sc(=S)n2-c1ccccc1 | inactive |
| CC1(O)CC(=O)c2c(cc3ccc(-c4c5c(c(O)c6c(O)cccc46)C(=O)CC(C)(O)C5)c(O)c3c2O)C1 (configuration not stated) | active |
| COc1cccc(C2SC(=N)Nc3c2c(C)nn3C(=O)c2ccccc2O)c1 (configuration not stated) | inactive |
| CSc1c(C#N)c(O)n(-c2ccc(C)cc2)c(=O)c1C#N | inactive |
| CCNCC(O)c1ccc(N)c([N+](=O)[O-])c1 (configuration not stated) | inactive |
| CC(C)C1C(=O)N(c2c(F)c(F)c(F)c(F)c2F)C(=S)N1CC[S+]([O-])c1ccccc1 (configuration not stated) | inactive |
| Cn1cnc([N+](=O)[O-])c1Sc1nc(N)nc2c1ncn2[C@H]1C[C@H](O)[C@@H](CO)O1 | inactive |
| CC/C(SC)=[N+](\C)[O-] | inactive |
| CCOC(=O)NC(NC1=NCCS1)(C(=O)OCC)C(F)(F)F (configuration not stated) | inactive |
| O=S(=O)(O)c1ccc(/N=N/c2c(O)ccc3ccccc23)cc1 | inactive |
| O=S1(=O)OCCOS(=O)(=O)C1(Br)Br | inactive |
| Cc1cc2nc(O)c(CCC(=O)O)nc2cc1C | inactive |
| CN(C)CC1CC/C(=C\c2ccc(Cl)cc2)C1=O (configuration not stated) | inactive |
| CCN(CC)C(=S)N/N=C1\C(=O)Nc2ccccc21 | active |
| O=Cc1ccc(-c2ccc(-c3ccc(C=O)s3)o2)s1 | inactive |
| O=C1OC(c2ccccc2)=N/C1=C/NC(Cc1c[nH]c2ccccc12)C(=O)O (configuration not stated) | inactive |
| COC(=O)[C@]1(C)CCC[C@@]2(C)C1CC[C@]13C=C(C(C)C)[C@H](CC21)CC3(Cl)C#N (some centres not stated) | inactive |

Data credit: ChEMBL document CHEMBL1201862
